Biological target: CXCR3 (Homo sapiens, UniProt P49682)
Construct: expressed in transfected cells
Sequence (P49682 1-368): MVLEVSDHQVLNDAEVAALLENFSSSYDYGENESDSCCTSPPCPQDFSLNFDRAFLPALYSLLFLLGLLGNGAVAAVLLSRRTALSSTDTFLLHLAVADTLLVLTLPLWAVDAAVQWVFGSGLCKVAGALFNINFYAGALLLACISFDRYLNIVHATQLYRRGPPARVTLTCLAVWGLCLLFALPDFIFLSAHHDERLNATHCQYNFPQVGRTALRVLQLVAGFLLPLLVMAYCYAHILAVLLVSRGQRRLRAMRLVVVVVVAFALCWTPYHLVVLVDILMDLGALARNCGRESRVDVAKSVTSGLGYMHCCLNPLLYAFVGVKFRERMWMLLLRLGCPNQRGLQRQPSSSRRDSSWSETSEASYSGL
Assay: CXCR3/IP-10 radioligand binding (125I-IP-10 competition, CXCR3.L1/2 cell membranes)
Settings: Table 5; test compound 10 μmol/L; 125I-labeled IP-10 binding to CXCR3.L1/2 transfectant cell membrane
The reader will find reported % inhibition at 10 μmol/L values listed item by item below.
Value kind: % inhibition at 10 μmol/L (%)

• N#CC(C#N)=C1N(CCN(Cc2cccc(CN3CCCCC3)c2)C(=O)c2ccco2)CCN1Cc1cccc2ccccc12 = 85
• CC(=O)N(CCN1CCN(Cc2cccc3ccccc23)C1=C(C#N)C#N)Cc1cccc(CN2CCCCC2)c1 = 76
• CS(=O)(=O)N(CCN1CCN(Cc2cccc3ccccc23)C1=C(C#N)C#N)Cc1cccc(CN2CCCCC2)c1 = 89
• CCN(CCN1CCN(Cc2cccc3ccccc23)C1=C(C#N)C#N)Cc1ccc(OCCN2CCCC2)cc1 = 76

###

Molecular target: CXCR3 (Homo sapiens)
Construct: expressed in transfected cells
Sequence (P49682 1-368): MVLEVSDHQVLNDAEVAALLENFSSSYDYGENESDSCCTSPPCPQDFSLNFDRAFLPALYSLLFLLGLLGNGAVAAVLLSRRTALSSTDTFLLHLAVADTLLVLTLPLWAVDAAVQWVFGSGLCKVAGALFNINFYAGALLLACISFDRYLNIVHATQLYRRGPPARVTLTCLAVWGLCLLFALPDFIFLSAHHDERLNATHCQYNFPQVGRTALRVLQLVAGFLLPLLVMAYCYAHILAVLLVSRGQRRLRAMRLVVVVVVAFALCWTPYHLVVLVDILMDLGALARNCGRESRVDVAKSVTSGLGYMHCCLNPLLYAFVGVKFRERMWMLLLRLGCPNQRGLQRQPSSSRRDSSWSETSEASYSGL
Test: CXCR3/IP-10 radioligand binding (125I-IP-10 competition, CXCR3.L1/2 cell membranes)
Conditions: Table 6; test compound 10 μmol/L; 125I-labeled IP-10 binding to CXCR3.L1/2 transfectant cell membrane
Value kind: inhibition at 10 µM (%)

- CCCNCc1ccc(C(=O)N(CC)CCN2CCN(Cc3cc(Cl)cc(Cl)c3)C2=C(C#N)C#N)cc1 [Compound 30]: 73
- CCCNCc1ccc(CNCCN2CCN(Cc3cc(C)cc(C)c3)C2=C(C#N)C#N)cc1 [Compound 22]: 92
- CCCNCc1ccc(C(=O)N(CC)CCN2CCN(Cc3cc(C)cc(C)c3)C2=C(C#N)C#N)cc1 [Compound 29]: 51
- CCN(CCN1CCN(Cc2cc(Cl)cc(Cl)c2)C1=C(C#N)C#N)C(=O)c1ccc(CN2CCCCC2)cc1 [Compound 28]: 41
- CCN(CCN1CCN(C(=O)c2cc(C)cc(C)c2)C1=C(C#N)C#N)Cc1ccc(CN2CCCCC2)cc1 [Compound 25]: 99
- CCN(CCN1CCN(Cc2cc(C)cc(C)c2)C1=C(C#N)C#N)Cc1ccc(CN2CCCCC2)cc1 [Compound 23]: 97
- CCN(CCN1CCN(Cc2cccc3ccccc23)C1=C(C#N)C#N)C(=O)c1ccc(CN2CCCCC2)cc1 [Compound 27]: 72
- CCN(CCN1CCN(Cc2cc(Cl)cc(Cl)c2)C1=C(C#N)C#N)Cc1ccc(CN2CCCCC2)cc1 [Compound 24]: 91
- CCN(CCN1CCN(Cc2cc(C)cc(C)c2)C1=C(C#N)C#N)C(=O)c1ccc(CN2CCCCC2)cc1 [Compound 26]: 64
